Value source: PubChem BioAssay AID1259415

# protocolText: qHTS Assay for inhibitors of the human cytomegalovirus (HCMV)
# measurementParameters: HFF cells, HCMV-luciferase reporter, 72 h; at 57.5 µM
The campaign covered roughly 410,000 compounds. About 18,000 (4.4%) were called active. About 7% were inconclusive and are not listed. Rule as the data show it: active = activity change below about -60%; inconclusive = no clear call, values can overlap the other calls; inactive = above about -39%. Shown is part of a subset that was picked to be rich in actives.
Outcome codes: t = active, f = inactive

| chemSmiles | cat |
| --- | --- |
| Cc1ccc(C)c(Nc2nnc(-c3ccc(C)c(S(=O)(=O)N4CCCCC4)c3)c3ccccc23)c1 | t |
| N#C/C(=C\c1ccccc1F)c1nc2ccccc2c(=O)[nH]1 | f |
| COc1ccc(Cl)cc1NC(=O)CSc1nc(-c2cccs2)cc(C(F)(F)F)n1 | f |
| CCOC(=O)N1CCc2c(sc(NCc3cccc(F)c3)c2C(=O)Nc2ccccc2OCC)C1 | f |
| CCc1c(C)sc(NC(=O)C2c3ccccc3Oc3ccccc32)c1C(=O)OC(C)C | f |
| O=C(/C(=C/c1cccc(Cl)c1)c1nc2ccccc2[nH]1)c1ccccc1 | t |
| Cc1ccc(CSc2nc3ccsc3c(=O)n2CCC(C)C)cc1 | f |
| CCCC1=Nc2cc(C(=O)NCc3ccco3)ccc2Sc2ccccc21 | t |
| O=C(NCc1ccco1)c1cccc(-c2ccc3nncn3c2)c1 | f |
| COc1cc(-n2c(C)nc3cc(C(=O)NCc4ccco4)ccc32)cc(OC)c1OC | f |
